Target: T1, GST (Pierce) (UniProt P08515 1-218 = GST, limits assumed)
T1 construct: control for the GST part of the fusion protein; also called GST protein; Glutathione-S-transferase
Test: array SPR, Ab immobilised

binder	binding result
anti-TMEM106B antibody TM-39 (antibody, V domains shown) VH: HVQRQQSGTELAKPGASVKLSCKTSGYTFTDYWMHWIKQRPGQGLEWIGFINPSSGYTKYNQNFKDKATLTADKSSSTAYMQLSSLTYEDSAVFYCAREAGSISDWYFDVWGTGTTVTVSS VL: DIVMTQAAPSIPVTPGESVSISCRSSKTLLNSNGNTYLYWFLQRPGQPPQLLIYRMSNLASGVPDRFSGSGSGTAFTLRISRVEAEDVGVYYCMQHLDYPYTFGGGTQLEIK	no binding
anti-TMEM106B antibody TM-47 (antibody, V domains shown, mouse IgG from hybridoma) VH: QVQLKESGPVLVAPSQSLSITCTVSGFSLTNYGVHWVRQPPGKGLEWLGVIWAGGNTNYNSALMSRLSISKDNSKSQVFLKMNSLQTDDTAMYYCAKEAKLLRSYAMDYWGQGTSVTVSS VL: DIVMTQSPSSLTVTAGEKVTMSCKSSQSLLNSGNQKNYLTWYQQKPGQPPKLLIYWASTRESGVPDRFTGSGSGTDFTLTISSVQAEDLAVYYCQNDYSYPLTFGAGTKLEIK	no binding
anti-TMEM106B antibody TM-52 (antibody, V domains shown, mouse IgG from hybridoma) VH: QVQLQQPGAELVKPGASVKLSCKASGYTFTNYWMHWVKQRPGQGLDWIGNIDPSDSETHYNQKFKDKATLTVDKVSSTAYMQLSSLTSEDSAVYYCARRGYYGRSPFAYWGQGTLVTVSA VL: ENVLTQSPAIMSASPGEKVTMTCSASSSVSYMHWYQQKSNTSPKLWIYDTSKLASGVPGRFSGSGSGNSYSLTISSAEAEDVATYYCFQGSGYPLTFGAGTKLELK	no binding
